# protocol-text: Plasma pharmacokinetics of vatalanib
# Assay type: in vivo, human
# condition-set: human, plasma, oral, tmax Mean(Range), stratum B (on EIAEDs, N=8), day 7 (vatalanib alone, steady state)
assay-readout: Tmax (h)
Answer in h, number only, no unit symbol.

# input Any idea what its Tmax is? The molecule is Clc1ccc(Nc2nnc(Cc3ccncc3)c3ccccc23)cc1 [vatalanib]
# output 1.79

----------
# protocol-text: Plasma pharmacokinetics of vatalanib
# Format: in vivo, human
# condition-set: human, plasma, oral, tmax Mean(Range), stratum B (on EIAEDs, N=8), day 35 (with imatinib and hydroxyurea)
assay-readout: Tmax (h)
Answer in h, number only, no unit symbol.

# input Any idea what its Tmax is? The compound is Clc1ccc(Nc2nnc(Cc3ccncc3)c3ccccc23)cc1 [vatalanib]
# output 2.13
